target: T1, PD-1 on PD-1-expressing 300.19 cells (UniProt Q15116 25-288, limits assumed); assay: rank among the 16 humanized clones in competition binding against labeled murine mAb BAP049, 1st exp. (FIGURE 6A)
T1 construct: whole, on cells
T1 sequence (Q15116 25-288 limits assumed): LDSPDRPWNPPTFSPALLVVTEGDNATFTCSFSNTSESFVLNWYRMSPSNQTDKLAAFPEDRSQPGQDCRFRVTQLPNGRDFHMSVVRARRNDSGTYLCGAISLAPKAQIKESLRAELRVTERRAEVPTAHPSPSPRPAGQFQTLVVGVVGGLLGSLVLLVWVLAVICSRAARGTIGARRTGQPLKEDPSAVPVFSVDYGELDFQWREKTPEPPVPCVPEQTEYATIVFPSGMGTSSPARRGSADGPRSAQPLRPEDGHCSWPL
readout kind: Competition Binding 1st exp.
Answer field: number only, no words.

Problem: Provide measured Competition Binding 1st exp. value, entry: BAP049-hum03 (antibody, human IgG4 S228P, kappa, V domains shown, also called Clone No. 3) VH: EVQLVQSGAEVKKPGESLRISCKGSGYTFTTYWMHWIRQSPSRGLEWLGNIYPGTGGSNFDEKFKNRFTISRDNSKNTLYLQMNSLRAEDTAVYYCTRWTTGTGAYWGQGTTVTVSS VL: DIQMTQSPSSLSASVGDRVTITCKSSQSLLDSGNQKNFLTWYQQKPGQAPRLLIYWASTRESGIPPRFSGSGYGTDFTLTINNIESEDAAYYFCQNDYSYPYTFGQGTKVEIKR
Solution: 8

Problem: Provide measured Competition Binding 1st exp. value, entry: BAP049-hum01 (antibody, human IgG4 S228P, kappa, V domains shown, Humanized mAb) VH: EVQLVQSGAEVKKPGESLRISCKGSGYTFTTYWMHWVRQATGQGLEWMGNIYPGTGGSNFDEKFKNRVTITADKSTSTAYMELSSLRSEDTAVYYCTRWTTGTGAYWGQGTTVTVSS VL: EIVLTQSPATLSLSPGERATLSCKSSQSLLDSGNQKNFLTWYQQKPGQAPRLLIYWASTRESGVPSRFSGSGSGTEFTLTISSLQPDDFATYYCQNDYSYPYTFGQGTKVEIKR
Solution: 7

Problem: Provide measured Competition Binding 1st exp. value, entry: BAP049-hum12 (antibody, human IgG4 S228P, kappa, V domains shown, also called Clone No. 12) VH: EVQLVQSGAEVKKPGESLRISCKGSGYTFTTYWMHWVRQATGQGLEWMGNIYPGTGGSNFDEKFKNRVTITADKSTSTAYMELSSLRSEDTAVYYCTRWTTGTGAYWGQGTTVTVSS VL: DIQMTQSPSSLSASVGDRVTITCKSSQSLLDSGNQKNFLTWYLQKPGQSPQLLIYWASTRESGVPSRFSGSGSGTDFTFTISSLEAEDAATYYCQNDYSYPYTFGQGTKVEIKR
Solution: 8
